# Test system: Panc 05.04 cells (pancreatic cancer cells; Q699H and K700E mutations in SF3B1)
# Run Description: Cell viability assay (CellTiter-Glo, 72 hr), Panc 05.04 cells
# Type: cell-based
# Run Conditions: Panc 05.04 cells (mutant SF3B1); read-out: Panc 05.04 (mt SF3B1 cells), GI50
Quantity Kind: GI50 (µM)
Lab book: enter the figure in µM, no units written.

[ask] Record request: GI50 value, item C/C(=C\C=C\[C@@H](C)COC(=O)N1CCCC1)[C@H]1OC(=O)CCCCC[C@@H](OC(=O)N2CCN(C)CC2)/C=C/[C@@H]1C
[reply] 0.00674

[ask] Likewise for CC[C@H](OC(C)=O)[C@@H](C)[C@H]1O[C@@H]1C[C@@](C)(O)/C=C/C=C(\C)[C@H]1OC(=O)C[C@H](O)CC[C@@](C)(O)[C@@H](OC(=O)N2CCN(C3CCCCCC3)CC2)/C=C/[C@@H]1C ?
[reply] 0.00241

[ask] Likewise for CC(=O)O[C@H]1/C=C/[C@H](C)[C@@H](/C(C)=C/C=C/[C@@H](C)c2ccccn2)OC(=O)C[C@H](O)CC[C@@H]1C ?
[reply] 2.89

[ask] Likewise for C/C(=C\C=C\[C@@H](C)COC(=O)N1CC2CC2C1)[C@H]1OC(=O)C[C@H](O)CC[C@@](C)(O)[C@@H](OC(=O)N2CCN(C3CCCCCC3)CC2)/C=C/[C@@H]1C (some centres unmarked) ?
[reply] 0.0186

[ask] Likewise for CC[C@H](O)[C@@H](C)[C@H]1O[C@@H]1C[C@@](C)(O)/C=C/C=C(\C)[C@H]1OC(=O)C[C@H](O)CC[C@@](C)(OC)[C@@H](OC(=O)N(C)CCN(C)C)/C=C/[C@@H]1C ?
[reply] 0.00348

[ask] Likewise for C/C(=C\C=C\C(C)c1ccncn1)[C@H]1OC(=O)C[C@H](O)CC[C@@](C)(O)[C@@H](OC(=O)N2CCN(C3CCCCCC3)CC2)/C=C/[C@@H]1C (some centres unmarked) ?
[reply] 0.956

[ask] Likewise for CCCNC(=O)OC[C@H](C)/C=C/C=C(\C)[C@H]1OC(=O)C[C@H](O)CC[C@@](C)(O)[C@@H](OC(C)=O)/C=C/[C@@H]1C ?
[reply] 4.59

[ask] Likewise for CCC(C)N(C)C(=O)OC[C@H](C)/C=C/C=C(\C)[C@H]1OC(=O)C[C@H](O)CC[C@@](C)(O)[C@@H](OC(C)=O)/C=C/[C@@H]1C (some centres unmarked) ?
[reply] 0.587

[ask] Likewise for C/C(=C\C=C\[C@@H](C)c1ccccn1)[C@H]1OC(=O)C[C@H](O)CC[C@@](C)(O)[C@@H](OC(=O)N(C)C2CCN(C)CC2)/C=C/[C@@H]1C ?
[reply] 0.0251

[ask] Likewise for C/C(=C\C=C\[C@@H](C)COC(=O)N1CCC[C@H]1CO)[C@H]1OC(=O)C[C@H](O)CC[C@@](C)(O)[C@@H](OC(=O)N2CCN(C3CCCCCC3)CC2)/C=C/[C@@H]1C ?
[reply] 0.00239

[ask] Likewise for C/C(=C\C=C\[C@@H](C)COC(=O)N1CCC[C@H]1C(N)=O)[C@H]1OC(=O)C[C@H](O)CC[C@@](C)(O)[C@@H](OC(=O)N2CCN(C3CCCCCC3)CC2)/C=C/[C@@H]1C ?
[reply] 0.0402

[ask] Likewise for C/C(=C\C=C\[C@@H](C)COC(=O)N1CC[C@H](C)C1)[C@H]1OC(=O)C[C@H](O)CC[C@@](C)(O)[C@@H](OC(=O)N2CCN(C3CCCCCC3)CC2)/C=C/[C@@H]1C ?
[reply] 0.00259

[ask] Likewise for C/C(=C\C=C\C(C)c1cc(C)ccn1)[C@H]1OC(=O)C[C@H](O)CC[C@@](C)(O)[C@@H](OC(=O)N2CCN(C3CCCCCC3)CC2)/C=C/[C@@H]1C (some centres unmarked) ?
[reply] 0.0599

[ask] Likewise for COCCN(C)C(=O)OC[C@H](C)/C=C/C=C(\C)[C@H]1OC(=O)C[C@H](O)CC[C@@](C)(O)[C@@H](OC(C)=O)/C=C/[C@@H]1C ?
[reply] 0.0643

[ask] Likewise for C/C(=C\C=C\[C@H](C)c1nccc(C)n1)[C@H]1OC(=O)C[C@H](O)CC[C@@](C)(O)[C@@H](OC(=O)N2CCN(C3CCCCCC3)CC2)/C=C/[C@@H]1C ?
[reply] 0.101

[ask] Likewise for C/C(=C\C=C\[C@@H](C)c1ccccn1)[C@H]1OC(=O)C[C@H](O)CC[C@@](C)(O)[C@@H](OC(=O)N2CCN(C3CCOCC3)CC2)/C=C/[C@@H]1C ?
[reply] 0.0372

[ask] Likewise for C/C(=C\C=C\[C@@H](C)COC(=O)N1CC[C@@H](O)C1)[C@H]1NC(=O)CCCCC[C@@H](OC(=O)N2CCN(C)CC2)/C=C/[C@@H]1C ?
[reply] 1.18

[ask] Likewise for C/C(=C\C=C\C(C)c1ncccn1)[C@H]1OC(=O)CCCCC[C@@H](OC(=O)N2CCN(C)CC2)/C=C/[C@@H]1C (some centres unmarked) ?
[reply] 0.0404

[ask] Likewise for CC(=O)O[C@H]1/C=C/[C@H](C)[C@@H](/C(C)=C/C=C/C(C)c2cccc([C@H](C)CO)n2)OC(=O)C[C@H](O)CC[C@@]1(C)O (some centres unmarked) ?
[reply] 0.408

[ask] Likewise for C/C(=C\C=C\[C@@H](C)COC(=O)N1CC[C@@H](C(=O)O)C1)[C@H]1OC(=O)C[C@H](O)CC[C@@](C)(O)[C@@H](OC(=O)N2CCN(C3CCCCCC3)CC2)/C=C/[C@@H]1C ?
[reply] 0.108

[ask] Likewise for C/C(=C\C=C\[C@@H](C)COC(=O)N1CC=CC1)[C@H]1OC(=O)C[C@H](O)CC[C@@](C)(O)[C@@H](OC(=O)N2CCN(C3CCCCCC3)CC2)/C=C/[C@@H]1C ?
[reply] 0.00368

[ask] Likewise for CC(=O)O[C@H]1/C=C/[C@H](C)[C@@H](/C(C)=C/C=C/[C@@H](C)COC(N)=O)OC(=O)C[C@H](O)CC[C@@]1(C)O ?
[reply] 2.09

Where these numbers come from: patent US11926619B2
